This collection of values is drawn from PubChem BioAssay AID1963430.

# Test system: 521955-158-R2-J5-PDC complex spheroid growth, % test/control;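 note: spheroids exposed to agents for 7 days before readout; 100% = DMSO vehicle control viability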
# protocol notes: Anticancer human tumor 521955-158-R2-J5-PDC patient-derived pancreatic carcinoma cell line growth inhibition [Asc]
# condition context: second compound 0.3 µM; first compound 0.0316 µM; stronger effect = lower value
property: viability, T/C

C#Cc1c(F)ccc2cc(O)cc(-c3ncc4c(N5CC6CCC(C5)N6)nc(OCC56CCCN5CC(F)C6)nc4c3F)c12 (stereo not given) + CCN1C(C(=O)NC23CCC(C(=O)O)(CC2)CC3)C(c2cccc(Cl)c2F)C2(C(=O)Nc3cc(Cl)ccc32)C12CCCCC2 | 45.9%

Data request: Query: viability, T/C; subject: CCN1CCN(Cc2ccc(Nc3ncc(F)c(-c4cc(F)c5nc(C)n(C(C)C)c5c4)n3)nc2)CC1 + CCN1C(C(=O)NC23CCC(C(=O)O)(CC2)CC3)C(c2cccc(Cl)c2F)C2(C(=O)Nc3cc(Cl)ccc32)C12CCCCC2
Data returned: 65.6%

Data request: Query: viability, T/C; subject: O=C(c1cc(Cc2n[nH]c(=O)c3ccccc23)ccc1F)N1CCN(C(=O)C2CC2)CC1 + CCN1C(C(=O)NC23CCC(C(=O)O)(CC2)CC3)C(c2cccc(Cl)c2F)C2(C(=O)Nc3cc(Cl)ccc32)C12CCCCC2
Data returned: 96.9%

Data request: Query: viability, T/C; subject: C=C(F)C(=O)N1CCN(c2nc(OCC3CCCN3C)nc3c2CCN(c2cccc4cccc(Cl)c24)C3)CC1CC#N (stereo not given) + CCN1C(C(=O)NC23CCC(C(=O)O)(CC2)CC3)C(c2cccc(Cl)c2F)C2(C(=O)Nc3cc(Cl)ccc32)C12CCCCC2
Data returned: 110%

Data request: Query: viability, T/C; subject: Cn1ncnc1[C@H]1c2n[nH]c(=O)c3cc(F)cc(c23)N[C@@H]1c1ccc(F)cc1 + CCN1C(C(=O)NC23CCC(C(=O)O)(CC2)CC3)C(c2cccc(Cl)c2F)C2(C(=O)Nc3cc(Cl)ccc32)C12CCCCC2
Data returned: 78%
